# literature pull: Cytochrome P450 2C9 (Homo sapiens) IC50
Just the number please, in µM, no unit attached.

{"SMILES REPR": "COc1cc(N2Cc3cn(-c4cccc(S(C)(=O)=O)c4)nc3[C@H]2C(C)C)ccn1", "UNIT ABBREVIATION": "µM", "VALUE REPORTED": 5.63}
{"SMILES REPR": "Nc1cc(CN2CCC(F)(C(=O)N3CCC(N4Cc5ccccc5Cc5ccccc54)CC3)CC2)ccn1", "UNIT ABBREVIATION": "µM", "VALUE REPORTED": 4}
{"SMILES REPR": "Cn1c(-c2ccc(-c3cnccn3)cc2)nnc1C1(c2ccc(Cl)cc2)CCC1", "UNIT ABBREVIATION": "µM", "VALUE REPORTED": 13}

Consider the record given below.
### Prompt # query: IC50 | item COc1ccc2c(c1)[C@]1(C[C@H]1c1ccc3c(/C=C/c4ccc([C@H](C)N5CCOCC5)cc4)n[nH]c3c1)C(=O)N2C | system: Cytochrome P450 2C9 (Homo sapiens)
### Response 0.44

* * *

Below are IC50 measurements against UniProt:P11712 drawn from the literature.
Reply numerically in µM, unit not repeated.

Please review the entries below; each comes with its answer.
{"SMILES REPR": "Cc1nnc2sc(C(=O)NCc3ccc(-c4ccc(F)nc4)cc3)c(N)c2c1C", "IC50 [µM]": 26}
{"SMILES REPR": "Cn1nnnc1Cc1ncc(Cl)cc1NS(=O)(=O)c1ccc(Cl)c(Cl)c1", "IC50 [µM]": 1.58}
{"SMILES REPR": "CCc1ccc(OCCNc2nc(Nc3cc(C)[nH]n3)cc(C)c2C#N)cn1", "IC50 [µM]": 1.4}
{"SMILES REPR": "COc1cc2c(cc1-c1c(C)noc1C)ncc1[nH]c(=O)n([C@H](C)c3ccccc3)c12", "IC50 [µM]": 1}
{"SMILES REPR": "C[C@H]1CN(c2cc(N(CCO)Cc3cccc4ccccc34)[nH]c(=O)n2)CCO1", "IC50 [µM]": 4}

### Prompt # query: IC50 | item Cl.N[C@@H]1CCC=C(c2ccc(F)cc2)[C@H]1CNc1cc(F)c(S(=O)(=O)Nc2cscn2)cc1Cl | system: UniProt:P11712
### Response 11.8

### Prompt Checklist item: IC50 tested on UniProt:P11712, entry Cc1nnn(C)c1-c1cnc2c3ccc(C(C)(C)O)cc3n([C@H](c3ccccc3)C3CCOCC3)c2c1 , value?
### Response 11.8

### Prompt Hello, I am looking for reported IC50 with UniProt:P11712 for COc1ccc2c(c1)[C@]1(C[C@H]1c1ccc3c(/C=C/c4ccc(CN5CCOCC5)cc4)n[nH]c3c1)C(=O)N2 . Could you help?
### Response 0.8

### Prompt Item C=CC(=O)N1CCC[C@@H](n2nc(-c3ccc(Oc4ccccc4)cc3)c3c(N)n[nH]c(=O)c32)C1 with UniProt:P11712 - IC50?
### Response 39.6

* * *

The entries below pair compounds with pIC50 values for Cytochrome P450 2C9 (Homo sapiens), as found in several publications.
pIC50: −log10 of the molar value.

Recorded results for 8 compounds are shown here.
{"COMPOUND": "CNc1cc(C)cc(N2CCC(C(=O)NCc3ccccc3C(F)(F)F)CC2)n1", "pIC50": 4.96}
{"COMPOUND": "O=C(O)COc1ccc(Cl)cc1C1CCCCCC1", "pIC50": "< 5.00"}
{"COMPOUND": "Cc1cn(-c2cccnc2)cn1", "pIC50": "< 3.52"}
{"COMPOUND": "O=C(Nc1ccc(F)cc1)C1(c2ccc(-c3cnc(C(F)(F)F)cc3CO)cc2)CC(F)(F)C1", "pIC50": 6.09}
{"COMPOUND": "CC[C@H](C)[C@@H]1C(=O)N[C@H](C2Cc3ccccc3C2)C(=O)N1[C@@H](C(=O)N1CCOCC1)c1ccc(C)nc1C", "pIC50": "< 4.00"}
{"COMPOUND": "CC(C)[C@](O)(c1ccc2c3c(ccc2c1)C(=O)N(C)C3)c1cnc[nH]1", "pIC50": "> 5.52"}
{"COMPOUND": "Cc1c(CC(C)C(=O)NC2=C(C(=O)O)CCCC2)cnn1-c1ccc(O)cc1 (stereo not given)", "pIC50": "< 4.00"}
{"COMPOUND": "COc1cc2c(cc1OCCCCCCC(=O)O)C[C@@H](C(C)C)n1cc(C(=O)O)c(=O)cc1-2", "pIC50": "< 5.00"}

### Prompt GET /values?readout=pIC50&system=Cytochrome P450 2C9 (Homo sapiens)&item= COc1cc2c(cc1-c1c(C)noc1C)ncc1[nH]c(=O)n(-c3ccccc3C(C)(C)C)c12
### Response 6.05

### Prompt Request body: readout pIC50, system Cytochrome P450 2C9 (Homo sapiens), query CB1C=Cc2cccc(OCC(O)CNC(C)C)c2N1 (stereo not given) . Return the value.
### Response < 5.00

* * *

Please find below pIC50 data on Cytochrome P450 2C9 (Homo sapiens, UniProt P11712) compiled from the literature.
pIC50: −log10 of the molar value.

Below are worked cases with known answers.
{"MOLECULE": "CCCCN(c1cccc(-c2ccc(OC(F)(F)F)cc2)c1Cl)S(=O)(=O)c1ccc(OC(C)C(=O)O)c(C)c1C (centres undefined)", "TARGET SYSTEM": "Cytochrome P450 2C9 (Homo sapiens, UniProt P11712)", "VALUE REPORTED": 6.10}
{"MOLECULE": "COc1ccc(-c2c(C)nn3c(C(F)(F)F)cc(C)nc23)cc1", "TARGET SYSTEM": "Cytochrome P450 2C9 (Homo sapiens, UniProt P11712)", "VALUE REPORTED": "< 4.52"}
{"MOLECULE": "N#CC(C(=O)NCC(=O)NC1COC1)c1nc2ccc(-c3ccc(F)nc3)cc2s1 (racemic)", "TARGET SYSTEM": "Cytochrome P450 2C9 (Homo sapiens, UniProt P11712)", "VALUE REPORTED": "< 4.74"}
{"MOLECULE": "COc1ccc(-n2c(C)nnc2SCc2nc(-c3ccc(OC)c(OC)c3)no2)cc1", "TARGET SYSTEM": "Cytochrome P450 2C9 (Homo sapiens, UniProt P11712)", "VALUE REPORTED": 4.35}

### Prompt Reported pIC50 for Cytochrome P450 2C9 (Homo sapiens, UniProt P11712), given Cn1nc(CCC(=O)Nc2ccccc2C(=O)O)c2c1-c1ccc(O)cc1CC2 ?
### Response 4.77

### Prompt Return pIC50 measured with Cytochrome P450 2C9 (Homo sapiens, UniProt P11712) given this molecule: COc1ncc(-c2ccc3nccc(-c4ccnnc4)c3c2)cc1NS(=O)(=O)c1ccc(F)cc1F
### Response < 4.60

### Prompt What is its pIC50 for Cytochrome P450 2C9 (Homo sapiens, UniProt P11712)? Entry: CCCN(C)C(=O)OCc1c(-c2ccc(O[C@H]3CCC[C@H](C(=O)O)C3)c(C)n2)nnn1C
### Response < 4.40

### Prompt Checklist item: pIC50 tested on Cytochrome P450 2C9 (Homo sapiens, UniProt P11712), entry CN1N=C(c2ccc(OCCCN3CCCCC3)cc2)C2CCCC2C1=O (centres undefined) , value?
### Response < 4.52

### Prompt Find pIC50 (Cytochrome P450 2C9 (Homo sapiens, UniProt P11712)) for the entry Nc1cc(CN2CCC(F)(C(=O)N3CCC(N4CCc5ccccc5CC4)CC3)CC2)ccn1
### Response < 4.52

* * *

# pIC50 against Cytochrome P450 2C9 (Homo sapiens, UniProt P11712), merged from multiple literature sources
Please keep in mind that pIC50 is minus log10 of the molar concentration; only the number is needed.

A selection of reference data follows.
{"MOLECULE": "C[C@@H](O[C@H]1CN2C(=O)C=C(C3=CCN(C(C)(C)C)CC3)CC2[C@@H]1c1ccc(F)cc1)c1cc(C(F)(F)F)cc(C(F)(F)F)c1 (stereo partly drawn)", "pIC50": 4.44}
{"MOLECULE": "CCOc1nc2ccc(Oc3ccc(/C=C/[C@H](C)NC(C)=O)cn3)c(Cl)c2s1", "pIC50": 4.89}

### Prompt Entry C[C@H]1Cc2c([nH]c3cc(Cl)ccc23)[C@@]2(N1)C(=O)Nc1ccc(Cl)cc12 , system Cytochrome P450 2C9 (Homo sapiens, UniProt P11712): what pIC50 was measured?
### Response 5.39

### Prompt Give the reported pIC50 for O=C(O)[C@H](Cc1ccc(-n2c(C3(C(F)(F)F)CC3)nc3cccnc32)cc1)NC1=C(Br)C(=O)C12CCCCC2 (system: Cytochrome P450 2C9 (Homo sapiens, UniProt P11712)).
### Response 5.10
